Molecular target: T1, human CD73 antigen (human, UniProt P21589 27-547)
T1 construct: also called Biotinylated Human CD73
T1 sequence (looked up): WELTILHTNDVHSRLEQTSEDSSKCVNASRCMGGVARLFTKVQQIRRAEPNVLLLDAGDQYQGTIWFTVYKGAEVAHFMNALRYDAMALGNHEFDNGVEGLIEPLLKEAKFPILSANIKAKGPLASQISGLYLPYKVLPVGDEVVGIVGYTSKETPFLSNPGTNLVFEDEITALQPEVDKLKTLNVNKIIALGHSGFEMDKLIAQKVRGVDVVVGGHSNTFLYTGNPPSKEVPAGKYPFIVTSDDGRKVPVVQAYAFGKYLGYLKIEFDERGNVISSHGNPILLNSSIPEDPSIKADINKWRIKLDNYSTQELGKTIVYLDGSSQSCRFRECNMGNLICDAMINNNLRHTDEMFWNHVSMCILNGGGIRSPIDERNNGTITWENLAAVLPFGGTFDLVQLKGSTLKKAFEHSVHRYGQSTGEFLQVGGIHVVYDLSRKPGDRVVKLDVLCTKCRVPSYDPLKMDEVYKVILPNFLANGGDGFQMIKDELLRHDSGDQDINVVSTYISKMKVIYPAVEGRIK
Experiment: ForteBio BLI; antigen on sensor, 100 nM scFv; monovalent; 1:1 model
property-label: Kd
Entry format: amount then unit.

What does the record list as Kd for scfv fragment of ADI-37505 (scFv, V domains shown) VH: QVQLVESGGGLVQPGGSLRLSCAASGFTFSNYAMTWVRQAPGKGLEWVSAISGRGTATYYADSVKGRFTISRDNSKNTLYLQMNSLRAEDTAVYYCARGGPYGSGSYWDTFDYWGQGTLVTVSS VL: EIVMTQSPATLSVSPGERATLSCRASQSVSSNLAWYQQKPGQAPRLLIYGASTRATGIPARFSGSGSGTEFTLTISSLQSEDFAVYYCQQYTNHYTFGGGTKVEIK ?
5.56 nM
